Data origin, for the record: patent US6132944A

# PROTOCOL DETAILS: pKa by spectrophotometric titration in aqueous Triton X-100
# Type: physicochemical
# CONDITIONS: Table I; sol group; aqueous Triton X-100
MEASURED ATTRIBUTE: pKa

Below, 2 compounds whose answers are already recorded.
COMPOUND | MEASURED ATTRIBUTE | REPORTED MEASUREMENT
COc1ccc(C(=O)C(OC(=O)N(c2ccc(C=C(C#N)c3nc4cc(C(C)(C)CC(C)(C)C)ccc4o3)c(C)c2)C2CCCC2)C(=O)Nc2cc(NS(=O)(=O)c3ccc(O)cc3)ccc2Cl)cc1 (centres unmarked) [Inv-3] | pKa | 8.7
CCN(C(=O)OC(C(=O)Nc1cc(NS(=O)(=O)c2ccc(NS(C)(=O)=O)c3ccccc23)ccc1Cl)C(=O)c1ccc(OC)cc1)c1ccc(C=C(C#N)c2nc3cc(C(C)(C)CC(C)(C)C)ccc3o2)c(C)c1 (centres unmarked) [Inv-5] | pKa | 6.7

P = CCN(C(=O)OC(C(=O)Nc1cc(NS(=O)(=O)c2c(NS(C)(=O)=O)ccc3ccccc23)ccc1Cl)C(=O)c1ccc(OC)cc1)c1ccc(C=C(C#N)c2nc3cc(C(C)(C)CC(C)(C)C)ccc3o2)c(C)c1 (centres unmarked) [Inv-4]
Q = CCCCCCCCCCCCCCCCS(=O)(=O)Nc1ccc(Cl)c(NC(=O)C(OC(=O)N(CC)c2ccc(N=Nc3ccc(C(=O)OCCCCCCCCCCCC)cc3)cc2)C(=O)C(C)(C)C)c1 (centres unmarked) [Comp-1]
Enquiry: Kindly compare P with Q and tell me which has the lower pKa figure. Write down the label of the entry you select.
Return: P

====

# PROTOCOL DETAILS: pKa by spectrophotometric titration in aqueous Triton X-100
# Format: physicochemical
# CONDITIONS: Table II; aqueous Triton X-100
MEASURED ATTRIBUTE: pKa (Sol. group)

SMILES DATA | pKa (Sol. group)
COc1ccccc1NC(=O)CC(=O)c1cccc(NS(=O)(=O)c2ccc(C)cc2)c1 | 8.8
CCCCCCCCCCCCCCCCS(=O)(=O)Nc1ccc(Cl)c(NC(C)=O)c1 | 9.5
CC(=O)c1cccc(NS(=O)(=O)c2ccc(C)cc2)c1 | 8.7
CC(=O)Nc1cc(NS(=O)(=O)c2ccc(O)cc2)ccc1Cl | 8.1

A = CN(C)S(=O)(=O)c1ccc(NS(C)(=O)=O)c2ccccc12
B = CCCCCCCCCCCCCCCCNS(=O)(=O)c1ccccc1
Enquiry: Of A versus B , which is the one with smaller reported pKa (Sol. group)? I would appreciate it if you answered with the label of your choice.
Return: A
(A: 6.6, B: 13.0)

====

# PROTOCOL DETAILS: pKa by spectrophotometric titration in aqueous Triton X-100
# Assay type: physicochemical
# CONDITIONS: Table I; sol group; aqueous Triton X-100
MEASURED ATTRIBUTE: pKa

COMPOUND | REPORTED MEASUREMENT
Cc1cc(N(C(=O)OC(C(=O)Nc2cc(NS(=O)(=O)c3cccc(NS(C)(=O)=O)c3)ccc2Cl)C(=O)C(C)(C)C)C2CCCC2)ccc1C=C(C#N)c1nc2cc(C(C)(C)CC(C)(C)C)ccc2o1 (stereo not shown) | 7.9
Cc1cc(N(C(=O)OC(C(=O)Nc2cc(NS(=O)(=O)c3ccc(NS(C)(=O)=O)cc3O)ccc2Cl)C(=O)C(C)(C)C)C2CCCC2)ccc1C=C(C#N)c1nc2cc(C(C)(C)CC(C)(C)C)ccc2o1 (stereo not shown) | 7.4
CCN(C(=O)OC(C(=O)Nc1cc(NS(=O)(=O)c2ccccc2NS(C)(=O)=O)ccc1Cl)C(=O)c1ccc(OC)cc1)c1ccc(C=C(C#N)c2nc3cc(C(C)(C)CC(C)(C)C)ccc3o2)c(C)c1 (stereo not shown) | 6.1
Cc1cc(N(C(=O)OC(C(=O)Nc2cc(NS(=O)(=O)c3ccc(O)c(NS(C)(=O)=O)c3)ccc2Cl)C(=O)C(C)(C)C)C2CCCC2)ccc1C=C(C#N)c1nc2cc(C(C)(C)CC(C)(C)C)ccc2o1 (stereo not shown) | 7.2
COc1ccc(C(=O)C(OC(=O)N(c2ccc(C=C(C#N)c3nc4cc(C(C)(C)CC(C)(C)C)ccc4o3)c(C)c2)C2CCCC2)C(=O)Nc2cc(NS(=O)(=O)c3ccccc3NS(C)(=O)=O)ccc2Cl)cc1 (stereo not shown) | 6.1
CCCCCCCCCCCCCCCCNS(=O)(=O)c1ccc(Cl)c(NC(=O)C(OC(=O)N(CCCC)c2ccc(C=C(C#N)c3nc4ccccc4o3)c(C)c2)C(=O)c2ccc(OC)cc2)c1 (stereo not shown) | 13
CCCCN(C(=O)OC(C(=O)Nc1ccccc1OC)C(=O)c1cccc(NS(=O)(=O)c2ccc(C)cc2)c1)c1ccc(C=C(C#N)c2nc3cc(C(C)(C)CC(C)(C)C)ccc3o2)c(C)c1 (stereo not shown) | 8.9
Cc1cc(N(C(=O)OC(C(=O)Nc2cc(NS(=O)(=O)c3ccc(O)cc3)ccc2Cl)C(=O)C(C)(C)C)C2CCCC2)ccc1C=C(C#N)c1nc2cc(C(C)(C)CC(C)(C)C)ccc2o1 (stereo not shown) | 8.8

A = CCCCCCCCCCCCCCCCNS(=O)(=O)c1ccc(Cl)c(NC(=O)C(OC(=O)N(CCCCCCCCCCCC)c2ccc(C=C(C#N)c3nc4ccccc4o3)c(C)c2)C(=O)c2ccc(OC)cc2)c1 (stereo not shown)
B = CCN(C(=O)OC(C(=O)Nc1cc(NS(=O)(=O)c2ccc(NS(C)(=O)=O)cc2)ccc1Cl)C(=O)c1ccc(OC)cc1)c1ccc(C=C(C#N)c2nc3cc(C(C)(C)CC(C)(C)C)ccc3o2)c(C)c1 (stereo not shown)
Enquiry: Which shows the larger pKa value: A or B ? Give the label of your selection.
Return: A
(A: 13, B: 7.9)
